The values you see were collected from patent US20170022269A1.

Molecular target: T1, Aβ(1-40) monomer (human)
T1 construct: also called monomeric Aβ(1-40); Aβ(1-40) monomer, 0.1% NH4OH
T1 sequence (peptide, as listed by the source): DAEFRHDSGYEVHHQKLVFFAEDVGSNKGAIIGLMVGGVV
Test: dot blot densitometry, antibody 0.2 µg/ml; column Aβ(1-40) monomer, 0.1% NaOH
Listing of entries alongside the reported relation between recognition of Aβ(20-42) globulomer and the respective Aβ form.

binder	result
monoclonal antibody 10C1 (antibody, V domains shown, Mouse monoclonal antibody from hybridoma; also called ML15-10C1.5C6.3H4; hybridoma ATCC PTA-7810) VH: EVKLVESGGGLVQPGGSRKLSCAASGFTFSDYEMVWVRQAPGKGLEWVAYINSGSGTIHYADTVKGRFTISRDNPKNTLFLQMSSLRSEDTAMYYCARTLLRLHFDYWGQGTILTVSS VL: DIVMSQSPSSLAVSVGEKVTMSCKSSQSLFYSRNQKNFLAWYQQKPGQSPKLLIYWASTGESGVPDRFTGSGSGTDFTLTISSVKAEDLAVYYCQQYFSYPWTFGGGTKLEIKR	> 100000

Consider the additional binder presented here.
QUERY: Reported relation between recognition of Aβ(20-42) globulomer and the respective Aβ form for monoclonal antibody 7C6 (antibody, V domains shown, Mouse monoclonal antibody from hybridoma; also called ML13-7C6.1D4.4A9.5G8; hybridoma ATCC PTA-7240) VH: EVKLVESGGGLVKPGGSLKLSCAASGFTFSSYAMSWVRQTPAKRLEWVASIHNRGTIFYLDSVKGRFTISRDNVRNTLYLQMSSLRSEDTAIYYCTRGRSNSYAMDYWGQGTSVTVSS VL: DVLVTQSPLSLPVRLGDQASISCRSTQTLVHRNGDTYLEWYLQKPGQSPKSLIYKVSNRFSGVPDRFSGSGSGTDFTLKISRVEAEDLGVYYCFQGSHVPYTFGGGTKLEIKR : what is it?
RESULT: > 100000
